- Tested Target: Chromo domain-containing protein 1 (Saccharomyces cerevisiae (strain ATCC 204508 / S288c) (Baker's yeast)) (UniProt P32657)
- Sequence (P32657 whole entry, the tested form may be a part): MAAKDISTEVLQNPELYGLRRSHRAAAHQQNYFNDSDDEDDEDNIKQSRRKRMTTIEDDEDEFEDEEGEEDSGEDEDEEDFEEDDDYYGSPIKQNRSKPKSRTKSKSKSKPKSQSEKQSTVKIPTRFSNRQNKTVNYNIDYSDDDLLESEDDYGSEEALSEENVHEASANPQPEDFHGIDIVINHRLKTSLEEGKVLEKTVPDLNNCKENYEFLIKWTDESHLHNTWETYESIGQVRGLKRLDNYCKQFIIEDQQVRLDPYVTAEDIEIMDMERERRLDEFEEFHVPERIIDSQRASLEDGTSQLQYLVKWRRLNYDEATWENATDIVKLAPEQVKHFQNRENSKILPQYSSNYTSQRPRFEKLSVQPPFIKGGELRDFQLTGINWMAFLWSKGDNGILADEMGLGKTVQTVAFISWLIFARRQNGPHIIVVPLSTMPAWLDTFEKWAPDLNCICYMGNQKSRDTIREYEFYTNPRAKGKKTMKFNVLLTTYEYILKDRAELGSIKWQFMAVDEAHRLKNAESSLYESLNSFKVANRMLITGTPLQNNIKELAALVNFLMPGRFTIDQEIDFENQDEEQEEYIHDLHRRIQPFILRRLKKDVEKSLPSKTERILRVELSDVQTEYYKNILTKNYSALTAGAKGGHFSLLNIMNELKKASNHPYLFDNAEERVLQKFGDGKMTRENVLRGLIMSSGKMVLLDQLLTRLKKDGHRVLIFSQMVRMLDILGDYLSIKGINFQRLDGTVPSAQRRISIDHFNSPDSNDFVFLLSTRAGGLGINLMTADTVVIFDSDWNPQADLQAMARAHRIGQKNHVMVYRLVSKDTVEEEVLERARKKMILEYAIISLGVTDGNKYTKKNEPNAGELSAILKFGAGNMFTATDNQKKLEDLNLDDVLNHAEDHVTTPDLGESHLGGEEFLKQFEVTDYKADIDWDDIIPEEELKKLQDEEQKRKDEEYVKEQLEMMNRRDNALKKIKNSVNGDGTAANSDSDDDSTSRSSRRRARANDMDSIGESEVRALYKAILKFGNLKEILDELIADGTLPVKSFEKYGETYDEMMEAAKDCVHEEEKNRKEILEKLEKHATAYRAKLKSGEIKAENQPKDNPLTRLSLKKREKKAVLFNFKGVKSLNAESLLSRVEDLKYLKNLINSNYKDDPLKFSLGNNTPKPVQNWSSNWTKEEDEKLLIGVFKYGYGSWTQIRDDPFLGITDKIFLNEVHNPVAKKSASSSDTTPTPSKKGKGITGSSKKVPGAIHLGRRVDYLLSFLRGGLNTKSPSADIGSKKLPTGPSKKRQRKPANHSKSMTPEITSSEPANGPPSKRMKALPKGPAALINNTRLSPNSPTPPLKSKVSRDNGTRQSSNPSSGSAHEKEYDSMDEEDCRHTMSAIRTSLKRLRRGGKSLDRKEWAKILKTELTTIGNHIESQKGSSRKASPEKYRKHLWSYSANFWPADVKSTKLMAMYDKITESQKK
- Test Name: ScCHD-1 Enzyme Inhibition Assay
- Format: functional
- Set-up: scale not given: in the data most compounds retested in dose-response had high values
- Measurement Setup: 30 µM
So I've got a bunch of molecules here, and I need their Percent Effect values.
Give just the numeric value; % need not be written.

May I ask what Percent Effect has been recorded for COc1ccc(CN2C[C@@H]3OCCN(c4ncccn4)[C@@H]3C2)cc1 ?
0.371

May I ask what Percent Effect has been recorded for O=C1C[C@H]2[C@H](CCN2Cc2ccccn2)N1CC1CC1 ?
-6.54

May I ask what Percent Effect has been recorded for Cc1noc(C)c1CN1CC[C@H]2C[C@@H](c3nccs3)O[C@@H]2C1 ?
-0.345

May I ask what Percent Effect has been recorded for COCCN1CCC2(COCc3cnc(N4CCOCC4)nc32)C1 (stereo unspecified) ?
-8.27

May I ask what Percent Effect has been recorded for COCCNC(=O)[C@@]12CCO[C@@H]1CCN(Cc1c(C)noc1C)C2 ?
-1.61

May I ask what Percent Effect has been recorded for O=C(Cc1ccc(-n2cccn2)cc1)N1CCN2CCCCC2C1 (stereo unspecified) ?
-13.6

Cited source for all entries: ChEMBL document CHEMBL3988442
